Data origin: the kinase profiling compilation of Christmann-Franck et al. (2016)

Kindly supply the reported residual activity values for the records listed here.
- target desc: CSNK1G1 (human) (UniProt Q9HCP0)
- Sequence (Q9HCP0 whole entry, looked up): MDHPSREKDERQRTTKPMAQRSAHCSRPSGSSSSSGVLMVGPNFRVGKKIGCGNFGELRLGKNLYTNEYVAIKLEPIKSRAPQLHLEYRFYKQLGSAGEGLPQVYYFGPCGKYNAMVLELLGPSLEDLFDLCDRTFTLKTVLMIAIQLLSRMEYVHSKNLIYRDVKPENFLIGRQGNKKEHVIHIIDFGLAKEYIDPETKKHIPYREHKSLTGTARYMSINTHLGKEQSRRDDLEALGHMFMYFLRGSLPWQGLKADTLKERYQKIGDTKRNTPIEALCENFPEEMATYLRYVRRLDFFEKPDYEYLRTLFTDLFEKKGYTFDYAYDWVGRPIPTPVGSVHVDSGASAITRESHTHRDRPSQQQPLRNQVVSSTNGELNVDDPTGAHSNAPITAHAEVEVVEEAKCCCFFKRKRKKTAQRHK
- test details: radiometric filter-binding kinase assay, Kinase HotSpot
- experimental setup: compound 0.5 µM; ATP 10 µM
Field format: number, assumed %, no unit text.

In one line, give reported residual activity of the entry COc1cc2ncnc(Nc3ccc(Oc4ccccc4)cc3)c2cc1OC . 90

Provide only the value of recorded residual activity for CS(=O)(=O)CCNCc1ccc(-c2ccc3ncnc(Nc4ccc(OCc5cccc(F)c5)c(Cl)c4)c3c2)o1 105

Complete the entry with residual activity for O=C1NC(=O)c2c1c1c3ccccc3[nH]c1n1cncc21 68.4

Look up residual activity of COc1cc2ncnc(Nc3ccc(OCc4ccccc4)cc3)c2cc1OC and report it. 90.6

Answer with the recorded residual activity for the compound listed here: CCCCc1c(-c2ccc(OC)cc2)[nH]c2nccnc12 93.3

Output measured residual activity for this item: O=C(c1cc2cc(O)ccc2[nH]1)c1cc2cc(O)ccc2[nH]1 93.1

Specify reported residual activity for the compound shown: Fc1ccc(-c2nc3n(c2-c2ccncc2)CCS3)cc1 86.6

Report residual activity, nothing else, for this compound: CN(C)c1ccc(/C=C2\C(=O)Nc3ccccc32)cc1 93

Return value of residual activity for input N#C/C(=C\c1ccc(O)c(O)c1)C(=O)NCc1ccccc1 , no commentary. 102

Let me know recorded residual activity for N#Cc1c[nH]c2c[nH]/c(=N\Cc3cccnc3)cc2/c1=N\c1ccc(F)c(Cl)c1 , thanks. 87

Report measured residual activity; entry is COc1ccc(S(=O)(=O)N(CCO)c2ccccc2CN(C)C/C=C/c2ccc(Cl)cc2)cc1 105
